test-system: HLA-A*0201 class I monomer of the iTopia Epitope Discovery System
experiment: iTopia binding ED50
pEC50: −log10 of the molar value.
measurement-type: pEC50

These solved cases illustrate the format of a correct answer.
Task: Endpoint output: pEC50 of GLPSIPVHAI [PSMA288-297 analog, Ala at PΩ-1] . Value?
Result: 6.09

Task: Endpoint output: pEC50 of GLPSIPVHLI [PSMA288-297 analog, Leu at PΩ-1] . Value?
Result: 6.23

A = GLPSIPVHTI [PSMA288-297 analog, Thr at PΩ-1]
B = GLPSIPVHPL [PSMA288-297 analog, Leu at PΩ]
Task: Could you kindly indicate whether A or B has the higher pEC50 value? Answer with the label corresponding to your selection.
Result: A
(A: 6.32, B: 5.93)
